target: P. falciparum apicoplast DNA polymerase (Pf-apPOL) (Plasmodium falciparum, UniProt Q8ILY1); assay: Fluorescence-based high-throughput DNA polymerase assay (molecular beacon), primary screen and dose-response; format: biochemical; conditions: DRC-1; 180'; concentration 10;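 for % inhibition apPOL 180': test concentration in µM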
Sequence (Q8ILY1 entry or part of it): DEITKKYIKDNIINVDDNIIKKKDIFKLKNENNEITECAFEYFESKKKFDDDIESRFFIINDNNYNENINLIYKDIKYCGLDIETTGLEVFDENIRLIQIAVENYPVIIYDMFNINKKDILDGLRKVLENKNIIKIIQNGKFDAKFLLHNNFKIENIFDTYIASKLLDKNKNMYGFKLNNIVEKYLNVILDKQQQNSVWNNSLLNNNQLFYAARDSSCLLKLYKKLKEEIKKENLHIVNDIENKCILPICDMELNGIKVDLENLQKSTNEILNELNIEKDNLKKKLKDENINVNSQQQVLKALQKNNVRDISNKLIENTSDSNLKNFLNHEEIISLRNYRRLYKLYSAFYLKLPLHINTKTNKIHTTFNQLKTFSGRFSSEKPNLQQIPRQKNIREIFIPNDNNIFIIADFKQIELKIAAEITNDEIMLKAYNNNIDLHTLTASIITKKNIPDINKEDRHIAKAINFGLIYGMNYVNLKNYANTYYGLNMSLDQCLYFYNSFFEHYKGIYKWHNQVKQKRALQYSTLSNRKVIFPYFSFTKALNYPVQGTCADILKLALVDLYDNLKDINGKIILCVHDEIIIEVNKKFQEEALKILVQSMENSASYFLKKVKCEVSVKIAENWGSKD
Classification field. Basis: % inhibition apPOL 180'. Definitions: bottom bin (below 4%), middle bin (4% to below 20%), top bin (20% or more)

| Compound | Class Assignment |
| --- | --- |
| N#Cc1c(C2CCCCC2)nc(Sc2ccc(C(F)(F)F)cc2[N+](=O)[O-])[nH]c1=O | top bin |
| CN(C)S(=O)(=O)Oc1ccc(-c2noc(-c3ccc(Oc4cc(Cl)cc(Cl)c4)o3)n2)cc1 | middle bin |
| O=C(NNC(=O)C(F)(F)Sc1ccccc1)c1ccsc1 [Molecule 68, O=C(C(Sc1ccccc1)(F)F)NNC(=O)c1cscc1] | bottom bin |
| CN(C)C=C1SCc2ccccc2C1=O | bottom bin |
| O=C1CCCC2=C1C(c1ccccn1)C1=C(CCCC1=O)O2 | top bin |
| O=C(Nc1ccc2c(c1)Cc1cc(NC(=O)c3ccco3)ccc1-2)c1ccco1 | middle bin |
| Cc1ccc2c(C(=O)NCCc3cccnc3)cc(NC(=O)C(C)C)cc2n1 | middle bin |
| O=C(Nc1c2c(nn1-c1ccc(Oc3ccccc3)cc1)CSC2)c1ccco1 | middle bin |
| O=c1cc(-c2ccccc2)oc2c(O)c(O)ccc12 | middle bin |
| COc1cc(Cl)c(C)cc1NC(=O)Cn1ccc2c(=O)[nH]ccc21 | top bin |
| O=C1NCCCn2cc(S(=O)(=O)Nc3ccccc3)cc21 | bottom bin |
| O=C(Nc1cccc(Cl)c1)Nc1nnc(-c2ccncc2)s1 | middle bin |
| Cc1ccc(C)c(CSc2nc(C3CCCCC3)c(C#N)c(=O)[nH]2)c1 | top bin |
| Cc1ccc(C)n1-c1ccc(C(=O)NNC(=O)c2ccc3nccnc3c2)cc1 | bottom bin |
| CCC(C)NC(=O)c1cc(NC(C)=O)cc2nc(C)ccc12 (centres unmarked) | middle bin |
| CCOc1ccccc1-c1nc(-c2ccc(=O)[nH]c2)no1 [Molecule 76, CCOc1ccccc1c1onc(n1)c1ccc(=O)[nH]c1] | bottom bin |
| COc1ccc(-c2cc3nc4c(c(=O)n3[nH]2)CCN(C(=O)CCc2ccccc2)C4)cc1 | top bin |

----------
# Lookup of reported % inhibition Apo pol 5' keyed by entry
target: P. falciparum apicoplast DNA polymerase (Pf-apPOL) (Plasmodium falciparum); test: Fluorescence-based high-throughput DNA polymerase assay (molecular beacon), primary screen and dose-response; assay type: biochemical; details: DRC-2, 5', concentration 2.5

| Molecule | % inhibition Apo pol 5' (%) |
| --- | --- |
| Cc1nn(CC(=O)NCCSCc2ccco2)c(C)c1Br | 6 |
| O=c1cc(-c2ccccc2)oc2c(O)c(O)ccc12 | 12 |
| CCOc1ccccc1-c1nc(-c2ccc(=O)[nH]c2)no1 [Molecule 76, CCOc1ccccc1c1onc(n1)c1ccc(=O)[nH]c1] | -5.31 |
| O=[N+]([O-])c1cc2c(cc1CN1CCN(c3cccc(Cl)c3)CC1)OCO2 | 6 |
| O=C(c1c[nH]c2ncccc12)N1CCCCCC1 [Molecule 51, O=C(c1c[nH]c2c1cccn2)N1CCCCCC1] | 0.781 |
| CCOC(=O)C(NCc1ccco1)(NC(=O)c1ccco1)C(F)(F)F (centres unmarked) | 3 |
| CN(C)C=C1SCc2ccccc2C1=O | 2.65 |
| COc1cc(/C=C2\S/C(=N/C(C)=O)NC2=O)cc(Br)c1OCC(=O)O | 2.71 |

----------
Target: UniProtKB Q8ILY1
Test: Fluorescence-based high-throughput DNA polymerase assay (molecular beacon), primary screen and dose-response
Format: biochemical
Details: DRC-1; 180'; conc 80
Text: The HT assay employs a molecular beacon, a stem-loop DNA template with a Cy3 dye and the Black Hole Quencher on the 3′ and 5′ ends of the DNA, respectively. Pf-apPOL concentration is based on a calculated absorptivity of ε280 = 56750 M^−1 cm^−1. […] To identify apPOL inhibitors we utilised our previously developed high-throughput DNA polymerase assay. […] The assay accurately recapitulates the kinetic behaviour of apPOL, as measured through more conventional low-throughput gel-based assays. […]
Outcome Measure: % inhibition apPOL 180' (%)

| Compound | Assay Target | Assay Result |
| --- | --- | --- |
| O=C1NN(c2ccc(Cl)c(Cl)c2)C(=O)/C1=C/c1ccc(-c2ccc3c(c2)C(=O)OC3)o1 | UniProtKB Q8ILY1 | 94.9011 |
| Cc1ccc(CNC(=O)c2cnn3c(O)cc(CSc4ccc(Cl)cc4)nc23)cc1 | UniProtKB Q8ILY1 | 94.6304 |
| Cc1cccc(C2=N/C(=C\c3ccc([N+](=O)[O-])o3)C(=O)O2)c1 | UniProtKB Q8ILY1 | 94.2271 |
| Cc1cccc(NC(=O)Cn2ccc3c(=O)[nH]ccc32)c1C [Molecule 11, O=C(Cn1ccc2c1cc[nH]c2=O)Nc1cccc(c1C)C] | UniProtKB Q8ILY1 | 93.0322 |
| O=c1nc(/C=C/c2ccc(Br)cc2)oc2ccccc12 | UniProtKB Q8ILY1 | 94.1472 |
| O=C1Nc2ccc(I)cc2C1=Cc1cc(Br)c(O)c(Br)c1 | UniProtKB Q8ILY1 | 93.2975 |
| Cc1ccc(N2NC(=O)/C(=C\c3ccc(O)c([N+](=O)[O-])c3)C2=O)cc1Cl | UniProtKB Q8ILY1 | 93.9984 |
| C=CC1=C(C)c2cc3[nH]c(cc4nc(cc5[nH]c(cc1n2)c(C)c5CCC(=O)O)C(CCC(=O)O)=C4C)c(C)c3C=C | UniProtKB Q8ILY1 | 95.2166 |

----------
biological target: P. falciparum apicoplast DNA polymerase (Pf-apPOL) (Plasmodium falciparum); experiment: Fluorescence-based high-throughput DNA polymerase assay (molecular beacon), primary screen and dose-response; format: biochemical; conditions: DRC-2; read at 5'; concentration 2.5

| Compound | Assay Target | % inhibition Apo pol 5' 2.5 (%) |
| --- | --- | --- |
| Cn1nc(-c2nc(-c3ccccc3)no2)c2c1CCN(C(=O)Cc1cccs1)C2 | P. falciparum apicoplast DNA polymerase (Pf-apPOL) (Plasmodium falciparum) | 7.55 |
| Cc1nc(C)c2c(n1)N(CC1CCCCC1)C(=O)CC2 | P. falciparum apicoplast DNA polymerase (Pf-apPOL) (Plasmodium falciparum) | 20 |
| O=C1CSC2=NC3=C(CCc4ccccc43)C(c3cccs3)N12 (centres unmarked) | P. falciparum apicoplast DNA polymerase (Pf-apPOL) (Plasmodium falciparum) | 3.73 |
| CC(=O)OCC1=C(C(=O)[O-])N2C(=O)[C@@H](NC(=O)Cc3cccs3)[C@H]2SC1.[Na+] | P. falciparum apicoplast DNA polymerase (Pf-apPOL) (Plasmodium falciparum) | 3 |
| Cn1nc(-c2nnc(-c3ccccc3F)o2)c2c1CCN(C(=O)c1ccccc1Cl)C2 | P. falciparum apicoplast DNA polymerase (Pf-apPOL) (Plasmodium falciparum) | 20 |
| Cc1cccc(-c2noc(C(=O)NNC(=O)C(Cl)(Cl)Cl)n2)c1 | P. falciparum apicoplast DNA polymerase (Pf-apPOL) (Plasmodium falciparum) | 4.48 |
| Nc1cc(Oc2ccc(O)c(N)c2)ccc1O | P. falciparum apicoplast DNA polymerase (Pf-apPOL) (Plasmodium falciparum) | 42 |
| COc1ccccc1CC(=O)N1CCc2c(nc3cc(-c4ccccc4Cl)[nH]n3c2=O)C1 | P. falciparum apicoplast DNA polymerase (Pf-apPOL) (Plasmodium falciparum) | 3.77 |
| C#CC(C=CC)OC(=O)c1ccccc1C(=O)O (centres unmarked) | P. falciparum apicoplast DNA polymerase (Pf-apPOL) (Plasmodium falciparum) | 3.3 |
| Cc1cc2[nH]c(C(=O)Nc3ccc(F)cc3)c(CN3CCOCC3)c2s1 | P. falciparum apicoplast DNA polymerase (Pf-apPOL) (Plasmodium falciparum) | -2.34 |
| CCCc1ccc(Oc2coc3cc(OC)ccc3c2=O)cc1 | P. falciparum apicoplast DNA polymerase (Pf-apPOL) (Plasmodium falciparum) | 8 |
| Cc1ccc(N2CCC(NC(=O)Cc3cccs3)C2=O)cc1C (centres unmarked) | P. falciparum apicoplast DNA polymerase (Pf-apPOL) (Plasmodium falciparum) | -1.72 |
| CC(C)CC(C(=O)O)N1C(=O)C2C3C=CC(C2C1=O)C1C(=O)N(C(CC(C)C)C(=O)O)C(=O)C31 (centres unmarked) | P. falciparum apicoplast DNA polymerase (Pf-apPOL) (Plasmodium falciparum) | -1.41 |
| O=C(CCc1csc(NC(=O)Nc2ccccc2)n1)Nc1nc2ccccc2s1 | P. falciparum apicoplast DNA polymerase (Pf-apPOL) (Plasmodium falciparum) | -3.16 |
| COc1ccc(/C=C/c2cc(C(=O)O)c3ccccc3n2)cc1 | P. falciparum apicoplast DNA polymerase (Pf-apPOL) (Plasmodium falciparum) | 37 |
| N#Cc1c(O)nc(N2CCCCC2)nc1-c1ccc2c(c1)OCO2 | P. falciparum apicoplast DNA polymerase (Pf-apPOL) (Plasmodium falciparum) | 13 |
| Cc1ccsc1Cn1c(C)ccc1C | P. falciparum apicoplast DNA polymerase (Pf-apPOL) (Plasmodium falciparum) | -3.3 |
